# System: Echo-11
# MEASUREMENT_DESCRIPTION: EC50 evaluation against Echo-11 in RD cells
# Format: cell-based
# MEASUREMENT_PARAMETERS: read-out: EC50 against Echo-11
Below: a set of entries, each annotated with reported EC50.

COMPOUND: COc1cc(O)c2c(=O)cc(-c3ccc(O)c(OC)c3)oc2c1 [velutin]
ASSAY_SYSTEM: Echo-11
UNITS_LABEL: nM
CENSORING_OPERATOR: =
EC50: 690
--
COMPOUND: Oc1cccc(O)c1O
ASSAY_SYSTEM: Echo-11
UNITS_LABEL: nM
CENSORING_OPERATOR: >
EC50: 100000

###

# MEASUREMENT_DESCRIPTION: CC50 evaluation, CellTiter-Blue cell viability assay, RD cells
# Assay type: cell-based
# MEASUREMENT_PARAMETERS: human, RD cells (human rhabdomyosarcoma), parallel to CV-A9 assay

COMPOUND: Oc1cccc(O)c1O [pyrogallol]
CC50: > 100 µM

COMPOUND: COc1cc(-c2oc3cc(O)cc(O)c3c(=O)c2O)ccc1O [isorhamnetin]
CC50: > 100 µM

COMPOUND: COc1cc(O)c2c(=O)cc(-c3ccc(O)c(OC)c3)oc2c1 [velutin]
CC50: > 100 µM

###

# MEASUREMENT_DESCRIPTION: in vitro
# MEASUREMENT_PARAMETERS: African green monkey
EXPERIMENTAL_READOUT: CC50

COMPOUND: Oc1cccc(O)c1O
REPORTED_VALUE: > 100 µM

COMPOUND: COc1cc(O)c2c(=O)cc(-c3ccc(O)c(OC)c3)oc2c1 [velutin]
REPORTED_VALUE: > 100 µM

COMPOUND: COc1cc(-c2oc3cc(O)cc(O)c3c(=O)c2O)ccc1O
REPORTED_VALUE: > 100 µM

###

# System: Huh-7 cells

COMPOUND: O=C(O[C@@H]1Cc2c(O)cc(O)cc2O[C@@H]1c1ccc(O)c(O)c1)c1cc(O)c(O)c(O)c1 [(−)-epicatechin gallate]
CC50: > 100 µM

###

# Test system: Vero E6 cells

COMPOUND: O=C(O[C@@H]1Cc2c(O)cc(O)cc2O[C@@H]1c1ccc(O)c(O)c1)c1cc(O)c(O)c(O)c1 [(−)-epicatechin gallate]
CC50: > 100 µM

###

Measured CC50 values are reported for all entries that follow.
# MEASUREMENT_DESCRIPTION: in vitro
# MEASUREMENT_PARAMETERS: human
EXPERIMENTAL_READOUT: CC50

MOLECULE: COc1cc(-c2oc3cc(O)cc(O)c3c(=O)c2O)ccc1O [isorhamnetin]
REPORTED_VALUE: > 100 µM
--
MOLECULE: COc1cc(O)c2c(=O)cc(-c3ccc(O)c(OC)c3)oc2c1 [velutin]
REPORTED_VALUE: > 100 µM
--
MOLECULE: Oc1cccc(O)c1O [pyrogallol]
REPORTED_VALUE: > 100 µM
